Reference for the values: paper PMC5540273

Tested on: WEE1
Conditions: concentration: 1 μM, replicates: in singlicate; n = 1
# %Inh annotations
measurement.label: %Inh (%)

{"columns": ["compound", "output.unit", "assay.value"],
 "data": [
  ["CS(=O)(=O)CCNCc1ccc(-c2ccc3ncnc(Nc4ccc(OCc5ccccc5)c(Cl)c4)c3c2)o1.Cl", "%", 12],
  ["Cl.c1ccc(Cn2ccc3cc(Nc4ncnc5ccccc45)ccc32)cc1", "%", 12],
  ["Fc1ccc(Nc2nccc(-c3c(-c4ccc(Cl)cc4)nn4ncccc34)n2)cc1F", "%", 10],
  ["COc1ccc(-c2nc3n(c2-c2ccncc2)CCC3)cc1", "%", 0],
  ["COc1ccc(-c2oc3ncnc(N)c3c2-c2ccc(OC)cc2)cc1", "%", 33],
  ["COC(=O)c1cccc(NC(=O)NCCNc2ccnc(Nc3ccc(F)cc3)n2)c1", "%", 39],
  ["CC(C)(C)OC(=O)NC1CCCN(c2cc(-c3ccc4c(N)n[nH]c4c3)nc(N)n2)C1 (stereo not drawn)", "%", 17],
  ["CCc1nc(-c2cccc(N(C)S(=O)(=O)c3ccccc3)c2)c(-c2ccnc(Nc3ccc(N4CCN(C(C)=O)CC4)nc3)n2)s1", "%", 0],
  ["Cl.Fc1ccccc1COc1ccc(Nc2ncnc3ccc(-c4nnc(C(F)(F)F)o4)cc23)cc1Cl", "%", 3],
  ["Cc1cccc(-c2nc(Nc3ccc4[nH]nnc4c3)c3ccccc3n2)n1", "%", 0],
  ["C[C@H]1CC[C@@H](C(=O)Nc2ccccc2)CN1c1cc(-c2ccc3c(N)n[nH]c3c2)nc(N)n1", "%", 11],
  ["Fc1cccc(COc2ccc(Nc3ncnc4cc[nH]c34)cc2Cl)c1", "%", 12],
  ["CCc1nc(-c2cccc(C)c2)c(-c2ccnc(NC(=O)c3ccccc3)c2)s1", "%", 0],
  ["O=C(NCCCN1CCCC1=O)c1cnc(NCc2cc(Cl)ccc2Cl)nc1NC1CCNCC1", "%", 0],
  ["CSc1ccc(NC2=C(c3ccccc3Cl)C(=O)NC2=O)cc1", "%", 2],
  ["CC(C)N1CCC(n2cnc(-c3ccc(F)cc3)c2-c2ccnc(N)n2)CC1", "%", 17],
  ["Cl.Cl.c1ccc(-c2cc3ccncc3cc2OC2CCNCC2)cc1", "%", 5],
  ["Nc1n[nH]c2nnc(-c3ccccc3)cc12", "%", 21]
]}

---

Test system: SNRK;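 note: kd values determined as follow-up on hits from a single-replicate KINOMEscan panel screen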
pKd: −log10 of the molar value.

{"columns": ["compound", "target.of.assay", "pKd"],
 "data": [
  ["FC(F)(F)c1ccc(-c2cc(-c3c[nH]nc3-c3ccccn3)ccn2)cc1 [GW599550]", "SNRK", "< 5.00"]
]}

---

Test system: RPS6KA5(Kin.Dom.1-N-terminal)
Conditions: concentration: 1 μM, replicates: in singlicate; n = 1
# %Inh annotations
measurement.label: %Inh (%)

{"columns": ["compound", "measurement.label", "assay.value"],
 "data": [
  ["CNc1nccc(-c2c(-c3ccc(F)cc3)ncn2C2CCN(C)CC2)n1", "%Inh", 0],
  ["COc1ccc(-c2nc3n(c2-c2ccncc2)CCC3)cc1", "%Inh", 0],
  ["Nc1nccc2scc(-c3ccc4c(c3)CCN4C(=O)Cc3cc(F)ccc3F)c12", "%Inh", 15],
  ["O=C(NCCCN1CCCC1=O)c1cnc(NCc2cc(Cl)ccc2Cl)nc1NC1CCNCC1", "%Inh", 0],
  ["Cn1ccc2ncnc(Oc3ccc(NC(=O)Nc4cccnc4)c(Cl)c3)c21", "%Inh", 17],
  ["Fc1cccc(COc2ccc(Nc3ncnc4nn5ccccc5c34)cc2Cl)c1", "%Inh", 0],
  ["Clc1cccc(-c2nc(Nc3ccncc3)c3ccccc3n2)c1", "%Inh", 32],
  ["CCc1nc(-c2cccc(C)c2)c(-c2ccnc(NC(=O)c3ccccc3)c2)s1", "%Inh", 3],
  ["CC(C)N1CCC(n2cnc(-c3ccc(F)cc3)c2-c2ccnc(N)n2)CC1", "%Inh", 7],
  ["Clc1cc(Nc2ncnc3cc[nH]c23)ccc1OCc1ccccn1", "%Inh", 3],
  ["CN1c2ccc(-c3ccc(C(=O)NCCO)cc3)cc2-c2[nH]ncc2S1(=O)=O", "%Inh", 0],
  ["CSc1nn2c(=O)cc(N3CCOCC3)nc2n1Cc1cccc(Cl)c1Cl", "%Inh", 11],
  ["CCC(CC)(CC)n1cnc2c(N)ncnc21", "%Inh", 14],
  ["C[C@@H]1CCN(C(=O)CO)C[C@@H]1N(C)c1ncnc2[nH]ccc12", "%Inh", 0],
  ["CN1CCC(n2cnc(-c3ccc(F)cc3)c2-c2ccnc(NC3CCNCC3)n2)CC1", "%Inh", 1],
  ["COc1ccc(NC(=O)Nc2ccc(C)c(-c3ccc(C(=O)Nc4ccncc4)cc3)c2)cc1", "%Inh", 0],
  ["FC(F)(F)c1ccc(-c2nn3ncccc3c2-c2ccnc(Nc3cccc(C(F)(F)F)c3)n2)cc1", "%Inh", 0],
  ["CC(=O)Nc1n[nH]c2ncc(-c3ccccc3)cc12", "%Inh", 3],
  ["COC(=O)c1cccc(NC(=O)NCCNc2ccnc(Nc3ccc(F)cc3)n2)c1", "%Inh", 22],
  ["COc1cc2ncnc(Nc3ccc(OCc4ccccc4Br)c(Cl)c3)c2cc1OC.Cl", "%Inh", 0],
  ["CCc1nc(-c2cccc(N(C)S(=O)(=O)c3ccccc3)c2)c(-c2ccnc(Nc3ccc(N4CCN(C(C)=O)CC4)nc3)n2)s1", "%Inh", 0],
  ["N#Cc1ccc(Oc2ccc(Nc3ncnc4cc[nH]c34)cc2Cl)cc1", "%Inh", 20],
  ["CC(C)(C)OC(=O)NC1CCCN(c2cc(-c3ccc4c(N)n[nH]c4c3)nc(N)n2)C1 (stereo not drawn)", "%Inh", 0],
  ["Clc1ccc(-c2cc(-c3c[nH]nc3-c3ccccn3)ccn2)cc1", "%Inh", 6],
  ["Fc1cccc(COc2ccc(Nc3ncnc4cc[nH]c34)cc2Cl)c1", "%Inh", 2],
  ["Nc1nc(-c2cccnc2)c(-c2ccnc3ccccc23)s1", "%Inh", 26],
  ["O=C(CCO)NCCn1ccc2ncnc(Nc3ccc(Oc4cccc(C(F)(F)F)c4)c(Cl)c3)c21", "%Inh", 3],
  ["COc1ccc(-c2oc3ncnc(N)c3c2-c2ccc(OC)cc2)cc1", "%Inh", 0],
  ["CCn1c(-c2ccncc2)nc2cnccc21", "%Inh", 0],
  ["Cn1cc(-c2ccc3c(c2)CCN3C(=O)Cc2cccc(C(F)(F)F)c2)c2c(N)ncnc21", "%Inh", 25],
  ["CCCc1ccc(S(=O)(=O)NC2CCN(c3ccnc(Nc4ccc(OC)cc4)n3)C2)cc1 (stereo not drawn)", "%Inh", 0],
  ["OCCOCCn1ccc2ncnc(Nc3ccc(Oc4cccc(Cl)c4)c(Cl)c3)c21", "%Inh", 0],
  ["CNc1nccc(-c2c(-c3ccc(F)cc3)ncn2CCCN2CCOCC2)n1", "%Inh", 8],
  ["Cc1ccc(C)c(NC(=O)NCCNc2ccnc(Nc3ccc(F)cc3)n2)c1", "%Inh", 0],
  ["CS(=O)(=O)CCNCc1nc(-c2ccc3ncnc(Nc4ccc(OCc5cccc(F)c5)c(Cl)c4)c3c2)cs1.Cl", "%Inh", 0],
  ["COc1ccc(Nc2nccc(N3CCC(NC(=O)c4cccc(NC(C)=O)c4)C3)n2)cc1 (stereo not drawn)", "%Inh", 9]
]}

---

System: NEK9
Details: concentration: 1 μM, replicates: in singlicate; n = 1

{"columns": ["compound", "target.of.assay", "output.unit", "%Inh"],
 "data": [
  ["O=C(Nc1ccccc1)Nc1ccc(Oc2ccc3nccn3n2)cc1", "NEK9", "%", 0],
  ["CCc1nc(-c2cccc(N(C)S(=O)(=O)c3ccccc3)c2)c(-c2ccnc(Nc3ccc(N4CCN(C(C)=O)CC4)nc3)n2)s1", "NEK9", "%", 14],
  ["Cc1cc(N2CCC(NS(=O)(=O)c3ccc(F)cc3)CC2)nc(Nc2cccc(C#N)c2)n1.O=C(O)C(F)(F)F", "NEK9", "%", 0],
  ["C[C@@H]1CCN(C(=O)CO)C[C@@H]1N(C)c1ncnc2[nH]ccc12", "NEK9", "%", 0],
  ["CC(C)(C)OC(=O)NC1CCCN(c2cc(-c3ccc4c(N)n[nH]c4c3)nc(N)n2)C1 (centres unmarked)", "NEK9", "%", 2]
]}

---

# %Inh annotations
Test system: TEC
Settings: concentration: 1 μM, replicates: in singlicate; n = 1

{"columns": ["compound", "%Inh (%)"],
 "data": [
  ["Cl.Cn1ccc(-c2cccc(Nc3ccnc4cc(-c5nccs5)ccc34)c2)n1", 17],
  ["Cl.Fc1ccccc1COc1ccc(Nc2ncnc3ccc(-c4nnc(C(F)(F)F)o4)cc23)cc1Cl", 5],
  ["Fc1cccc(COc2ccc(Nc3ncnc4nn5ccccc5c34)cc2Cl)c1", 0],
  ["COc1ccc(Nc2nccc(N3CCC(NC(=O)c4cccc(NC(C)=O)c4)C3)n2)cc1 (stereo not drawn)", 0],
  ["COc1ccc(NC(=O)Nc2ccc(C)c(-c3ccc(C(=O)Nc4ccncc4)cc3)c2)cc1", 3],
  ["N#Cc1ccc(Oc2ccc(Nc3ncnc4cc[nH]c34)cc2Cl)cc1", 0],
  ["COc1cc2c(Nc3cccc(NC(=O)c4ccccc4)c3)ncnc2cc1OCCCN1CCOCC1", 0],
  ["O=C(Nc1ccccc1F)NC1CCN(c2ccnc(Nc3ccc(F)cc3)n2)C1 (stereo not drawn)", 6],
  ["Cl.O=S(=O)(c1cccc(F)c1)c1ccc(Nc2ncnc3cc(Br)sc23)cc1Cl", 0],
  ["O=C(NCCCN1CCCC1=O)c1cnc(NCc2cc(Cl)ccc2Cl)nc1NC1CCNCC1", 0],
  ["Cc1cccc(-c2nc(Nc3ccc4[nH]nnc4c3)c3ccccc3n2)n1", 0],
  ["Cl.Cl.c1ccc(-c2cc3ccncc3cc2OC2CCNCC2)cc1", 12],
  ["Cn1ccc2ncnc(Oc3ccc(NC(=O)Nc4cccnc4)c(Cl)c3)c21", 6],
  ["CCc1nc(-c2cccc(C)c2)c(-c2ccnc(NC(=O)c3ccccc3)c2)s1", 18],
  ["O=C(Nc1ccccc1)Nc1ccc(Oc2ccc3nccn3n2)cc1", 10],
  ["COC(=O)c1cccc(NC(=O)NCCNc2ccnc(Nc3ccc(F)cc3)n2)c1", 0],
  ["FC(F)(F)c1cc(Nc2nccc(-c3c(-c4ccc(Cl)cc4)nn4ncccc34)n2)ccc1Cl", 0],
  ["C[C@@H]1CCN(C(=O)CO)C[C@@H]1N(C)c1ncnc2[nH]ccc12", 3],
  ["Nc1n[nH]c2nnc(-c3ccccc3)cc12", 11],
  ["Cc1ccc(NC(=O)c2cccc(C#N)c2)cc1-c1ccc(C(=O)Nc2ccncc2)cc1", 11],
  ["Oc1ccc2ncnc(Nc3ccc(OCc4ccccc4)cc3)c2c1", 0]
]}
